Below is a list of entries, each paired with its recorded GI50 value.
System: TK-10
assayProtocol: NCI tumour cell line growth inhibition, 48 h
The source made the active and inactive calls. Cut-off read from the data, not from the text of the source: active = GI50 up to about 1.1 µM and inactive = higher.

- compound: "O=C1c2ccccc2C(=O)c2c(NCCNC(=O)C3CCCN3)ccc(NCCNC(=O)C3CCCN3)c21 (centres undefined)"
  experimentalResult: "> 100 µM (inactive)"
- compound: "c1ccc(C(C2=Nc3cccc4cccc(c34)N2)c2ccccc2)cc1"
  experimentalResult: "47.9 µM (inactive)"

Recorded GI50 for CC(=O)/C(=C\c1ccccc1)C(=O)Nc1ccccc1 , please?
> 100 µM (inactive)

Recorded GI50 for CC1[C@@]2(CCC(C)(C)O2)O[C@@H]2C=C3C4CCC5Cc6nc7c(nc6C[C@@]5(C)C4C[C@H](O)[C@@]3(C)[C@]12O)CC1CCC2C3=C[C@H]4O[C@@]5(O[C@@](C)(CO)C[C@@H]5O)C(C)[C@@]4(O)[C@]3(C)[C@@H](O)CC2[C@]1(C)C7 (some centres undefined) , please?
0.681 µM (active)

Recorded GI50 for Cn1c(=O)c(C(c2ccc([N+](=O)[O-])cc2)c2c(O)c3ccccc3n(C)c2=O)cc2ccccc21 (centres undefined) , please?
29.9 µM (inactive)

Recorded GI50 for Cn1c2ccc(Cl)cc2c2ccc3c(c21)C(=O)C=CC3=O , please?
> 10 µM (inactive)

Recorded GI50 for C[N+]1(C)CCCC(C#N)(c2ccccc2)CC1 (centres undefined) , please?
> 100 µM (inactive)
